Tested on: Staphylococcus aureus
protocol: Growth testing against ESKAPE pathogens: Staphylococcus aureus
Assay type: cell-based
Parameters: key: Growth; X: No Growth
condition info: 25 μg/ml
Description: Six analogs (FIG. 2) of the ciprofloxacin-N thiolated β-lactam were successfully synthesized. All these compounds were then tested against ESKAPE pathogens for bioactivity. The ESKAPE pathogens are a collection of six deadly superbugs, Enterococcus faecium, Staphylococcus aureus, Klebsiella pneumoniae, Acinetobacter baumannii, Pseudomonas aeruginosa, and Enterobacter species. […] G denotes growth and X denotes no growth in the tables.
measured metric: Activity against Staphylococcus aureus (growth observed)

Solved cases (5 shown):
- CCC(C)SN1C(=O)C(OC(=O)c2cn(C3CC3)c3cc(N4CCN(C(C)=O)CC4)c(F)cc3c2=O)C1c1ccccc1Cl (stereo not drawn): X
- CCCCCC(=O)N1CCN(c2cc3c(cc2F)c(=O)c(C(=O)OC2C(=O)N(c4ccc(OC)cc4)C2c2ccccc2Cl)cn3C2CC2)CC1 (stereo not drawn): G
- CCCCCC(=O)N1CCN(c2cc3c(cc2F)c(=O)c(C(=O)OC2C(=O)N(SC)C2c2ccccc2)cn3C2CC2)CC1 (stereo not drawn): G
- CCCCCC(=O)N1CCN(c2cc3c(cc2F)c(=O)c(C(=O)OC2C(=O)N(SC(C)CC)C2c2ccccc2Cl)cn3C2CC2)CC1 (stereo not drawn): G
- CCCCCCC(=O)N1CCN(c2cc3c(cc2F)c(=O)c(C(=O)OC2C(=O)N(SC(C)CC)C2c2ccccc2Cl)cn3C2CC2)CC1 (stereo not drawn): X

// below: Activity against Staphylococcus aureus (growth observed) requested for another molecule
[in] I have this molecule here, CCCCCCC(=O)N1CCN(c2cc3c(cc2F)c(=O)c(C(=O)OC2C(=O)N(SC)C2c2ccccc2)cn3C2CC2)CC1 (stereo not drawn) , and I need its recorded Activity against Staphylococcus aureus (growth observed).
[out] G

###

Tested on: Enterococcus faecium
protocol: Growth testing against ESKAPE pathogens: Enterococcus faecium
Assay type: cell-based
Parameters: key: Growth; X: No Growth
condition info: 8 μg/ml
measured metric: Activity against Enterococcus faecium (growth observed)

• CCCCCC(=O)N1CCN(c2cc3c(cc2F)c(=O)c(C(=O)OC2C(=O)N(SC(C)CC)C2c2ccccc2Cl)cn3C2CC2)CC1 (stereo not drawn) [Lactam 129] = G
• CCCCCC(=O)N1CCN(c2cc3c(cc2F)c(=O)c(C(=O)OC2C(=O)N(c4ccc(OC)cc4)C2c2ccccc2Cl)cn3C2CC2)CC1 (stereo not drawn) [Lactam 128] = G
• CCC(C)SN1C(=O)C(OC(=O)c2cn(C3CC3)c3cc(N4CCN(C(C)=O)CC4)c(F)cc3c2=O)C1c1ccccc1Cl (stereo not drawn) [Lactam 125] = G

###

Tested on: Pseudomonas aeruginosa
protocol: Growth testing against ESKAPE pathogens: Pseudomonas aeruginosa
Format: cell-based
Parameters: key: Growth; X: No Growth
condition info: 7 μg/ml
measured metric: Activity against Pseudomonas aeruginosa (growth observed)

- CCCCCCC(=O)N1CCN(c2cc3c(cc2F)c(=O)c(C(=O)OC2C(=O)N(SC)C2c2ccccc2)cn3C2CC2)CC1 (stereo not drawn): G
- CCCCCC(=O)N1CCN(c2cc3c(cc2F)c(=O)c(C(=O)OC2C(=O)N(c4ccc(OC)cc4)C2c2ccccc2Cl)cn3C2CC2)CC1 (stereo not drawn): G
- CCCCCC(=O)N1CCN(c2cc3c(cc2F)c(=O)c(C(=O)OC2C(=O)N(SC)C2c2ccccc2)cn3C2CC2)CC1 (stereo not drawn): G

###

Tested on: Klebesiella pneumonia
protocol: Growth testing against ESKAPE pathogens: Klebesiella pneumonia
Type: cell-based, Klebsiella pneumoniae
Design: key: Growth; X: No Growth
condition info: 7 μg/ml
Method: Six analogs (FIG. 2) of the ciprofloxacin-N thiolated β-lactam were successfully synthesized. All these compounds were then tested against ESKAPE pathogens for bioactivity. The ESKAPE pathogens are a collection of six deadly superbugs, Enterococcus faecium, Staphylococcus aureus, Klebsiella pneumoniae, Acinetobacter baumannii, Pseudomonas aeruginosa, and Enterobacter species. […] G denotes growth and X denotes no growth in the tables.
measured metric: Activity against Klebesiella pneumonia (growth observed)

Solved cases (5 shown):
- CCCCCCC(=O)N1CCN(c2cc3c(cc2F)c(=O)c(C(=O)OC2C(=O)N(SC(C)CC)C2c2ccccc2Cl)cn3C2CC2)CC1 (stereo not drawn): G
- CCC(C)SN1C(=O)C(OC(=O)c2cn(C3CC3)c3cc(N4CCN(C(C)=O)CC4)c(F)cc3c2=O)C1c1ccccc1Cl (stereo not drawn): G
- CCCCCC(=O)N1CCN(c2cc3c(cc2F)c(=O)c(C(=O)OC2C(=O)N(SC(C)CC)C2c2ccccc2Cl)cn3C2CC2)CC1 (stereo not drawn): G
- CCCCCCC(=O)N1CCN(c2cc3c(cc2F)c(=O)c(C(=O)OC2C(=O)N(SC)C2c2ccccc2)cn3C2CC2)CC1 (stereo not drawn): G
- CCCCCC(=O)N1CCN(c2cc3c(cc2F)c(=O)c(C(=O)OC2C(=O)N(SC)C2c2ccccc2)cn3C2CC2)CC1 (stereo not drawn): G

// below: Activity against Klebesiella pneumonia (growth observed) requested for another compound
[in] I have this compound here, CCCCCC(=O)N1CCN(c2cc3c(cc2F)c(=O)c(C(=O)OC2C(=O)N(c4ccc(OC)cc4)C2c2ccccc2Cl)cn3C2CC2)CC1 (stereo not drawn) , and I need its recorded Activity against Klebesiella pneumonia (growth observed).
[out] G

###

Tested on: Acinetobacter baumannii
protocol: Growth testing against ESKAPE pathogens: Acinetobacter baumannii
Assay type: cell-based
Parameters: key: Growth; X: No Growth
condition info: 7 μg/ml
measured metric: Activity against Acinetobacter baumannii (growth observed)

* CCCCCC(=O)N1CCN(c2cc3c(cc2F)c(=O)c(C(=O)OC2C(=O)N(SC(C)CC)C2c2ccccc2Cl)cn3C2CC2)CC1 (stereo not drawn) | G
* CCCCCCC(=O)N1CCN(c2cc3c(cc2F)c(=O)c(C(=O)OC2C(=O)N(SC)C2c2ccccc2)cn3C2CC2)CC1 (stereo not drawn) | G
* CCCCCC(=O)N1CCN(c2cc3c(cc2F)c(=O)c(C(=O)OC2C(=O)N(SC)C2c2ccccc2)cn3C2CC2)CC1 (stereo not drawn) | G

###

Tested on: Klebesiella pneumonia
protocol: Growth testing against ESKAPE pathogens: Klebesiella pneumonia
Format: cell-based, Klebsiella pneumoniae
Set-up: key: Growth; X: No Growth
condition info: 5 μg/ml
measured metric: Activity against Klebesiella pneumonia (growth observed)

- CCCCCC(=O)N1CCN(c2cc3c(cc2F)c(=O)c(C(=O)OC2C(=O)N(SC(C)CC)C2c2ccccc2Cl)cn3C2CC2)CC1 (stereo not drawn): G
- CCCCCCC(=O)N1CCN(c2cc3c(cc2F)c(=O)c(C(=O)OC2C(=O)N(SC)C2c2ccccc2)cn3C2CC2)CC1 (stereo not drawn): G
- CCCCCC(=O)N1CCN(c2cc3c(cc2F)c(=O)c(C(=O)OC2C(=O)N(c4ccc(OC)cc4)C2c2ccccc2Cl)cn3C2CC2)CC1 (stereo not drawn): G

###

Tested on: Staphylococcus aureus
protocol: Growth testing against ESKAPE pathogens: Staphylococcus aureus
Format: cell-based
Set-up: key: Growth; X: No Growth
condition info: 2 μg/ml
Protocol: Six analogs (FIG. 2) of the ciprofloxacin-N thiolated β-lactam were successfully synthesized. All these compounds were then tested against ESKAPE pathogens for bioactivity. The ESKAPE pathogens are a collection of six deadly superbugs, Enterococcus faecium, Staphylococcus aureus, Klebsiella pneumoniae, Acinetobacter baumannii, Pseudomonas aeruginosa, and Enterobacter species. […] G denotes growth and X denotes no growth in the tables.
measured metric: Activity against Staphylococcus aureus (growth observed)

Solved cases (5 shown):
- CCCCCC(=O)N1CCN(c2cc3c(cc2F)c(=O)c(C(=O)OC2C(=O)N(c4ccc(OC)cc4)C2c2ccccc2Cl)cn3C2CC2)CC1 (stereo not drawn): G
- CCCCCCC(=O)N1CCN(c2cc3c(cc2F)c(=O)c(C(=O)OC2C(=O)N(SC)C2c2ccccc2)cn3C2CC2)CC1 (stereo not drawn): G
- CCCCCCC(=O)N1CCN(c2cc3c(cc2F)c(=O)c(C(=O)OC2C(=O)N(SC(C)CC)C2c2ccccc2Cl)cn3C2CC2)CC1 (stereo not drawn): G
- CCCCCC(=O)N1CCN(c2cc3c(cc2F)c(=O)c(C(=O)OC2C(=O)N(SC)C2c2ccccc2)cn3C2CC2)CC1 (stereo not drawn): G
- CCCCCC(=O)N1CCN(c2cc3c(cc2F)c(=O)c(C(=O)OC2C(=O)N(SC(C)CC)C2c2ccccc2Cl)cn3C2CC2)CC1 (stereo not drawn): G

// below: Activity against Staphylococcus aureus (growth observed) requested for another compound
[in] I have this compound here, CCC(C)SN1C(=O)C(OC(=O)c2cn(C3CC3)c3cc(N4CCN(C(C)=O)CC4)c(F)cc3c2=O)C1c1ccccc1Cl (stereo not drawn) , and I need its recorded Activity against Staphylococcus aureus (growth observed).
[out] X

###

Tested on: Staphylococcus aureus
protocol: Growth testing against ESKAPE pathogens: Staphylococcus aureus
Format: cell-based
Parameters: key: Growth; X: No Growth
condition info: 7 μg/ml
measured metric: Activity against Staphylococcus aureus (growth observed)

Solved cases (5 shown):
* CCCCCC(=O)N1CCN(c2cc3c(cc2F)c(=O)c(C(=O)OC2C(=O)N(SC(C)CC)C2c2ccccc2Cl)cn3C2CC2)CC1 (stereo not drawn) | G
* CCC(C)SN1C(=O)C(OC(=O)c2cn(C3CC3)c3cc(N4CCN(C(C)=O)CC4)c(F)cc3c2=O)C1c1ccccc1Cl (stereo not drawn) | X
* CCCCCCC(=O)N1CCN(c2cc3c(cc2F)c(=O)c(C(=O)OC2C(=O)N(SC(C)CC)C2c2ccccc2Cl)cn3C2CC2)CC1 (stereo not drawn) | G
* CCCCCC(=O)N1CCN(c2cc3c(cc2F)c(=O)c(C(=O)OC2C(=O)N(SC)C2c2ccccc2)cn3C2CC2)CC1 (stereo not drawn) | G
* CCCCCCC(=O)N1CCN(c2cc3c(cc2F)c(=O)c(C(=O)OC2C(=O)N(SC)C2c2ccccc2)cn3C2CC2)CC1 (stereo not drawn) | G

[in] I have this compound here, CCCCCC(=O)N1CCN(c2cc3c(cc2F)c(=O)c(C(=O)OC2C(=O)N(c4ccc(OC)cc4)C2c2ccccc2Cl)cn3C2CC2)CC1 (stereo not drawn) , and I need its recorded Activity against Staphylococcus aureus (growth observed).
[out] G

All values here come from patent US10010545B1.
